Data origin, for the record: patent US20140348836A1

Target: T1, CD40hfc (R&Dsystems, USA) (UniProt P25942 21-193)
T1 construct: Bought reagent; also called immobilized CD40 receptor; target; not shown: Fc part ('hfc') of the bought fusion
T1 sequence (P25942 21-193 limits assumed): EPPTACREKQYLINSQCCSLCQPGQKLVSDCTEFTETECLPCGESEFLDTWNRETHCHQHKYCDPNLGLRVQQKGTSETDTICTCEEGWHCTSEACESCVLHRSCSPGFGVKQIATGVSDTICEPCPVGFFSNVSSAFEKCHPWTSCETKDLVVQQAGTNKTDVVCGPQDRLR
Assay: SPR (Biacore 3000), CD40hfc amine-coupled on chip, antibody as analyte, 37 C, acetate buffer pH 5.4
Description: The affinity measures of purified antibodies by surface plasmon resonance using the Biacore 3000 instrument was performed according to manufacturer's protocols. The CD40hfc (R&Dsystems, USA) was immobilized to the BIAcore sensorchip, CMS, using conventional amine coupling. The anti-CD40 antibodies of the invention, (serially diluted 1/3 from 1-0.012 nM) were analysed for binding in HBS-P (GE, BR-1003-68) at a flow rate of 30 μl/min at 37° C. and pH 7.3. […]
Reported pKd values follow for various binders
By convention, pKd is the negative base-10 log of a molar concentration.

Binder	pKd
Antibody B44 (antibody, V domains shown, Parent agonistic anti-CD40 antibody from the n-CoDeR library; Run alongside the IgG clones as 'B44 antibody' and detected with anti-human Ig on RAMOS cells; also called B44 antibody; original anti-CD40 antibody) VH: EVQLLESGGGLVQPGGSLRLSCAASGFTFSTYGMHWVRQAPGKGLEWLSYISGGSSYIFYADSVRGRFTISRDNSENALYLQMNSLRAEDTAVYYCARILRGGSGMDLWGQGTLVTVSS VL: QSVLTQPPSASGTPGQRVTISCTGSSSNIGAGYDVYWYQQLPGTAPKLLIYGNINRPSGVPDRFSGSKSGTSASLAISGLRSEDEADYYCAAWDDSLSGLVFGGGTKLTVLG	9.03
Antibody clone A4 (antibody, human IgG1, lambda, V domains shown, Tested as purified antibody; full chains are assembled here from VH/VL plus these; also called A4 ANTI-CD40 ANTIBODY) VH: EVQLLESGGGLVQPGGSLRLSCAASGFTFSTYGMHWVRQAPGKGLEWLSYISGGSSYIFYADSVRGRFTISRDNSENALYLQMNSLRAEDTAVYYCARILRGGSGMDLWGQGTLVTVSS VL: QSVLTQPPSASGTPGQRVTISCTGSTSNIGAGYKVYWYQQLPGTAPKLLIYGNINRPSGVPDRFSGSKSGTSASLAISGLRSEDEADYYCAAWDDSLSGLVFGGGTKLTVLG	10.70
Antibody clone A5 (antibody, human IgG1, lambda, V domains shown) VH: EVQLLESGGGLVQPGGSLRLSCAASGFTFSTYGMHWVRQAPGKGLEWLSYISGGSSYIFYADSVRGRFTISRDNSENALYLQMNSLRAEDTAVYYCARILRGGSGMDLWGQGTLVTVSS VL: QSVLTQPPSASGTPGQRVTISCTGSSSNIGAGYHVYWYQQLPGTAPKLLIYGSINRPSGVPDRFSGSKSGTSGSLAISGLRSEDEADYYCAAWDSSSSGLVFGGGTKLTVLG	10.66

Query: Name the recorded pKd of the binder listed here: Antibody clone B9 (antibody, human IgG1, lambda, V domains shown) VH: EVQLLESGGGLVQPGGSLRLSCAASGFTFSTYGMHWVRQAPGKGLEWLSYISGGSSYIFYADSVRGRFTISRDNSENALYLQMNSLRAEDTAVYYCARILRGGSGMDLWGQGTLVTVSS VL: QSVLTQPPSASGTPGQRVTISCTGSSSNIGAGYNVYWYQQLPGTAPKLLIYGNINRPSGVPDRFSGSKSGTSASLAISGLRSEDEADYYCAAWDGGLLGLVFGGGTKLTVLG
Reply: 10.48
